- systemUnderTest: FAAH (Rattus norvegicus)
- Construct: Frozen brains (without cerebellum) from Wistar rats were used; from tissue; host or cells: Wistar rat brain (without cerebellum), washed membrane pellets
- Sequence (P97612 1-579): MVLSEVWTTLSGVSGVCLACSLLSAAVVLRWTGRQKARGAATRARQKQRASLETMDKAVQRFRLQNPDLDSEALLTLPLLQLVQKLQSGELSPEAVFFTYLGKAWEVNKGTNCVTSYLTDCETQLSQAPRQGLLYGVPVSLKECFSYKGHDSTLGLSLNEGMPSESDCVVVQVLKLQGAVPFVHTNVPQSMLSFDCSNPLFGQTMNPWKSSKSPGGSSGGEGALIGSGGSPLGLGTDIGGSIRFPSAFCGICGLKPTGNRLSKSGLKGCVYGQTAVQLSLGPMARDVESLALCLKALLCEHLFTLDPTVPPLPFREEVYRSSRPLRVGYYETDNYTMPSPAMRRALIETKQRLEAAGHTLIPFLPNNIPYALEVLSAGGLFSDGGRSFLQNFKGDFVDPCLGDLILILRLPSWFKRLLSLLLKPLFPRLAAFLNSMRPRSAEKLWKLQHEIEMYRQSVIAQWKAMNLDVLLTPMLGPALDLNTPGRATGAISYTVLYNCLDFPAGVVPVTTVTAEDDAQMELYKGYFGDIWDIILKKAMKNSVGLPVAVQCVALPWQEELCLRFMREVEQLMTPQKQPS
- procedureDetails: In vitro FAAH activity in rat brain membranes, 3H-AEA substrate, % of control
- Type: biochemical, Wistar rats
- setupConditions: 100 nM test compound, low value = strong inhibitor
Overview of reported In Vitro FAAH activity, 100 nM across a group of molecules:

| molecule | In Vitro FAAH activity, 100 nM |
| --- | --- |
| CCOC(=O)C1CCN(C(=O)n2nnc3ccccc32)CC1 [Compound 176] | 0.2 % of control |
| CC1(C)COCN1C(=O)n1nnc2ccc(-c3cccc(C(N)=O)c3)cc21 [Compound 163] | 0.6 % of control |
| CC1(C)COCN1C(=O)n1cnc(-c2cccc(-c3cccc(C(N)=O)c3)c2)c1 [Compound 232] | 84.7 % of control |
| O=C(NC12CC3CC(CC(C3)C1)C2)n1cnc(-c2ccccc2)c1 [Compound 237] | 91.6 % of control |
| CN(C(=O)n1cnc(-c2cccc3ccccc23)n1)c1ccccc1 [Compound 192] | 64.6 % of control |
| Cl.O=C(N1CCC(CCN2CCCC2)CC1)n1nnc2ccccc21 [Compound 105] | 64.7 % of control |
| O=C(N1CCC2(CC1)OCCO2)n1cnc(-c2ccc(Cl)cc2)n1 [Compound 204] | 15.8 % of control |
| CN(C(=O)n1cnc(-c2ccccc2)c1)c1ccccc1 [Compound 4] | 83.6 % of control |
| O=C(N1CCC(Oc2ccc(Cl)cc2)CC1)n1nnc2ccccc21 [Compound 117] | 0.1 % of control |
| CN(Cc1ccc(F)cc1)C(=O)n1nnc2ccccc21 [Compound 130] | 0 % of control |
| CCN(C(=O)n1nnc2ccccc21)C1CCCCC1 [Compound 104] | 94.2 % of control |
| O=C(N1CCN(c2ccccn2)CC1)n1nnc2ccccc21 [Compound 49] | 0.1 % of control |
| COc1cccc(-c2cn(C(=O)N(Cc3ccccc3)C(C)(C)C)cn2)c1 [Compound 256] | 105.6 % of control |
| O=C(N1CCC(c2nc(-c3cccnc3)no2)CC1)n1nnc2ccccc21 [Compound 116] | 0.5 % of control |
| CN(C(=O)n1nnc2ccccc21)c1ccc(F)cc1F [Compound 70] | 1.9 % of control |
| CN(C(=O)n1cnc(-c2ccc(Cl)cc2)c1)c1ccccc1 [Compound 27] | 71.4 % of control |
| O=C(N1CCN(c2ccccc2)CC1)n1cnc(-c2ccccc2)n1 [Compound 111] | 1.5 % of control |
| O=C(N1CCc2ccccc2C1)n1cnc(-c2ccccc2)c1 [Compound 184] | 30.2 % of control |
| O=C(N1CCN(C2CCCC2)CC1)n1nnc2ccccc21 [Compound 154] | 0.2 % of control |

###

In Vivo LVh 3 mg·kg 8 h (remaining FAAH activity, % of control) listing for selected compounds.
- systemUnderTest: FAAH (Mus musculus, UniProt O08914)
- Construct: A fragment of liver, left lung lobe and brain without cerebellum were removed; from tissue; host or cells: male NMRI mice; brain (without cerebellum) and liver homogenates
- Sequence (O08914 1-579): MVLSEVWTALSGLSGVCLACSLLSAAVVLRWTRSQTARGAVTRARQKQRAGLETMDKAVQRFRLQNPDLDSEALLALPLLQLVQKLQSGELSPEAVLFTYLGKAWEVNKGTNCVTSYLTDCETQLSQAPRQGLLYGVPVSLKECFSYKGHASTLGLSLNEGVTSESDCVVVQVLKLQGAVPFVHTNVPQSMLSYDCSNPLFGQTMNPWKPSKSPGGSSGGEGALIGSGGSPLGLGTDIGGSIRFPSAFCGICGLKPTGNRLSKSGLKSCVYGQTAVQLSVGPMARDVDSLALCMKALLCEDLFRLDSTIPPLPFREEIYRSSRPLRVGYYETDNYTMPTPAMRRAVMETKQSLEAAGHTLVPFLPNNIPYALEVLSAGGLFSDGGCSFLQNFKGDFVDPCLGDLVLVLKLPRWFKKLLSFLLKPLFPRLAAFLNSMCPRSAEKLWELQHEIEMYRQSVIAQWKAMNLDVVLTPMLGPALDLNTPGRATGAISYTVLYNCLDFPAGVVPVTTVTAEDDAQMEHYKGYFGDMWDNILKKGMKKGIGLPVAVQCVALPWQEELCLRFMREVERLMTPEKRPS
- procedureDetails: In vivo FAAH inhibition after oral dosing, remaining activity in liver homogenate (LVh, peripheral tissue)
- Parameters: species or system NMRI mice
- setupConditions: liver homogenate, 3 mg/kg, 8 h after dosing; low value = strong inhibitor
quantityKind: In Vivo LVh 3 mg·kg 8 h (remaining FAAH activity, % of control)

| querySmiles | systemUnderTest | val |
| --- | --- | --- |
| CN(C)c1ccc(-c2cn(C(=O)N(C)C3CCCCC3)cn2)cc1N | FAAH (Mus musculus, UniProt O08914) | 6.5 % of control |
| CN(C(=O)n1cnc(-c2ccc(O)cc2)c1)C1CCCC1 | FAAH (Mus musculus, UniProt O08914) | 1.4 % of control |
| CC1(C)COCN1C(=O)n1cnc(-c2ccc(F)c(O)c2)c1 | FAAH (Mus musculus, UniProt O08914) | 81.5 % of control |
| CN(C(=O)n1cnc(-c2ccc(S(N)(=O)=O)cc2)c1)C1CCCCC1 | FAAH (Mus musculus, UniProt O08914) | 5.7 % of control |
| CN(C(=O)n1cnc(-c2ccc(F)c(O)c2)c1)C1CCCCC1 | FAAH (Mus musculus, UniProt O08914) | 19.7 % of control |
| CC1(C)COCN1C(=O)n1nnc2ccc(-c3ccccc3)cc21 | FAAH (Mus musculus, UniProt O08914) | 1.4 % of control |
| CC1(C)COCN1C(=O)n1nnc2cc(Cl)ccc21 | FAAH (Mus musculus, UniProt O08914) | 1.7 % of control |
| CN(C(=O)n1cnc(-c2ccc(S(C)(=O)=O)cc2)c1)C1CCCCC1 | FAAH (Mus musculus, UniProt O08914) | 2.7 % of control |
| CN(C(=O)n1cnc(-c2cccc(-c3cccc(C(N)=O)c3)c2)c1)C12CC3CC(CC(C3)C1)C2 | FAAH (Mus musculus, UniProt O08914) | 85.7 % of control |
| COc1ccc2nnn(C(=O)N3COCC3(C)C)c2c1 | FAAH (Mus musculus, UniProt O08914) | 1.7 % of control |

###

Catalogue of In Vitro FAAH activity, 100 nM values
- systemUnderTest: FAAH (Rattus norvegicus, UniProt P97612)
- Construct: Frozen brains (without cerebellum) from Wistar rats were used; from tissue; host or cells: Wistar rat brain (without cerebellum), washed membrane pellets
- Sequence (P97612 1-579): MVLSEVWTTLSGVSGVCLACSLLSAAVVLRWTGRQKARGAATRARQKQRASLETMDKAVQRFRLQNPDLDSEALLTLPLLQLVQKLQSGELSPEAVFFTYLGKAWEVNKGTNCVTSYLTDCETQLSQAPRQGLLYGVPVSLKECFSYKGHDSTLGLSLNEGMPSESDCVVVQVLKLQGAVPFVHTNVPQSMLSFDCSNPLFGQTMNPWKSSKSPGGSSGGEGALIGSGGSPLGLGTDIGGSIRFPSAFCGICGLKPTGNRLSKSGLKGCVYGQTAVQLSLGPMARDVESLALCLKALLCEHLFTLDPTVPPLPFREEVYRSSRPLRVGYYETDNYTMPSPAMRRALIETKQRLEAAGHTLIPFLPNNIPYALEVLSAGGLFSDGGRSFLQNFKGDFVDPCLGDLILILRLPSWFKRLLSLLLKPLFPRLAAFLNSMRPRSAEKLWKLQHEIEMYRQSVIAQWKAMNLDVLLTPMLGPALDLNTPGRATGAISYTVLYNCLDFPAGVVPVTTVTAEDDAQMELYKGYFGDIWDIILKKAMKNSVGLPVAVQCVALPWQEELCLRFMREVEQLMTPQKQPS
- procedureDetails: In vitro FAAH activity in rat brain membranes, 3H-AEA substrate, % of control
- Format: biochemical, Wistar rats
- setupConditions: 100 nM test compound, low value = strong inhibitor
quantityKind: In Vitro FAAH activity, 100 nM

| querySmiles | val |
| --- | --- |
| Cc1c(-c2ccccc2)ncn1C(=O)N(C)C1CCCCC1 | 81 % of control |
| Cc1ccc(OC2CCN(C(=O)n3cnc(-c4ccc(N5CCN(C)CC5)cc4)n3)CC2)cc1.Cl | 85.1 % of control |
| Cl.O=C(N1CCC(N2CCOCC2)CC1)n1nnc2ccccc21 | 38.6 % of control |
| C[C@@H]1CCC[C@H](C)N1C(=O)n1nnc2ccccc21 | 70.6 % of control |
| COc1ccc2c(ccn2C(=O)N2CCOCC2)c1 | 97.2 % of control |
| O=C(N1CCC(O)CC1)n1nnc2ccccc21 | 4.8 % of control |
| Cl.O=C(N1CCN(C2CCCCC2)CC1)n1cnc(-c2ccc(Cl)cc2)n1 | 0.8 % of control |
| CN(C(=O)n1cnc(-c2ccc(Cl)cc2)c1)C1CCCC1 | 5.4 % of control |
| COc1ccc(OC2CCN(C(=O)n3nnc4ccccc43)CC2)cc1 | 0.1 % of control |
| O=C(N1CCSC1)n1cnc(-c2ccc(Cl)cc2)n1 | 23.7 % of control |
| CN(C(=O)n1cnc(-c2cccs2)n1)c1ccccc1 | 57.5 % of control |
| CC1(C)COCN1C(=O)n1cnc(-c2ccc(Cl)cc2)c1 | 96.5 % of control |
| CN(C(=O)n1cnc(-c2ccc(O)cc2)c1)C1CCCCC1 | 54.1 % of control |
| O=C(N1CCCc2ccccc21)n1cnc(-c2cccc(O)c2)c1 | 100.8 % of control |
| O=C(N1CCN(c2ccccc2)CC1)n1cnc(-c2cccc3ccccc23)n1 | 3.3 % of control |
| NC(=O)c1ccc(Oc2ccc(-c3ncn(C(=O)N4CCOCC4)n3)cc2)cc1 | 55.1 % of control |
| CC1(C)COCN1C(=O)n1cnc(-c2ccc(O)cc2)c1 | 95.3 % of control |
| COc1cccc(-c2cn(C(=O)N(C)c3ccccc3)cn2)c1 | 69 % of control |
| CCOc1cccc(-c2cccc(-c3cn(C(=O)N(C)C4CCCCC4)cn3)c2)c1 | 39.9 % of control |
